src = paper PMC11871066

test: in vitro; settings: plasma
measured-attribute: fraction unbound

Which fraction unbound value is on record for `CCCCCCCCCCCCCC(=O)N[C@@H](CC(N)=O)C(=O)N[C@@H](CC(C)C)C(=O)N[C@]1(C)CCCCCCC=CCCC[C@@](C)(C(=O)N[C@@H](CCC(=O)O)C(=O)N[C@@H](CC(C)C)C(=O)N[C@@H](CC(N)=O)C(N)=O)NC(=O)[C@H](CC(C)C)NC(=O)[C@H](CC(C)C)NC(=O)[C@H](CCCNC(=N)N)NC(=O)[C@H](CC(=O)O)NC(=O)[C@H](CC(C)C)NC(=O)[C@H](CCC(=O)O)NC1=O` ? < 0.01
